Kindly state combination Emax for each of the entries shown.
- Test system: LOUCY (T-Lymphoblastic Leukemia)
- experimental_protocol: combination Emax (second highest fraction inhibited in the dose matrix, 72 h); higher = more inhibition; extreme values may be limits of the assay
No unit in the answer, only the number.

# input Param readout = combination Emax; param system = LOUCY (T-Lymphoblastic Leukemia); param query = C=CCn1c(=O)c2cnc(Nc3ccc(N4CCN(C)CC4)cc3)nc2n1-c1cccc(C(C)(C)O)n1 [AZD1775] + C[C@@H]1COCCN1C2=NC(=NC(=C2)C3(CC3)[S@](=N)(=O)C)C4=C5C=CNC5=NC=C4 [AZD6738] (first compound max 1 µM, partner max 10 µM) ; response: value
# output 1

# input Request: combination Emax, test system LOUCY (T-Lymphoblastic Leukemia), entry Cc1c2c(nn1C)CSCc1cc(n(C)n1)CSc1cc(c3ccccc3c1)OCCCc1c(C(=O)O)n(C)c3c-2c(Cl)ccc13 [AZD5991] + Cn1cnc2c(F)c(Nc3ccc(Br)cc3Cl)c(C(=O)NOCCO)cc21 [Selumetinib] (first compound max 1 µM, 7x7, partner max 3 µM)
# output 0.595

# input Give LOUCY (T-Lymphoblastic Leukemia) combination Emax for COc1cccc(OCCCN)c1-c1cc(Nc2cnc(C#N)cn2)n[nH]1 [Prexasertib] + O=C(c1cc(Cc2n[nH]c(=O)c3ccccc23)ccc1F)N1CCN(C(=O)C2CC2)CC1 [Olaparib] (first compound max 1 µM, 7x7, partner max 10 µM)
# output 1

# input Fill in the recorded combination Emax for this compound, with LOUCY (T-Lymphoblastic Leukemia) as test system: Cc1nc(-c2cn3c(n2)-c2ccc(-c4cnn(C(C)(C)C(N)=O)c4)cc2OCC3)n(C(C)C)n1 [Taselisib] + O=C(Nc1ccc2[nH]nc(-c3ccncc3)c2c1)[C@@H]1CCN(CC(=O)N2CCN(c3ccc(-c4ncccn4)cc3)CC2)C1 [SCH772984] (first compound max 10 µM, 7x7, partner max 5 µM)
# output 0.627
